- System Name: UniProt:Q8TF76
- Sequence (Q8TF76 whole entry): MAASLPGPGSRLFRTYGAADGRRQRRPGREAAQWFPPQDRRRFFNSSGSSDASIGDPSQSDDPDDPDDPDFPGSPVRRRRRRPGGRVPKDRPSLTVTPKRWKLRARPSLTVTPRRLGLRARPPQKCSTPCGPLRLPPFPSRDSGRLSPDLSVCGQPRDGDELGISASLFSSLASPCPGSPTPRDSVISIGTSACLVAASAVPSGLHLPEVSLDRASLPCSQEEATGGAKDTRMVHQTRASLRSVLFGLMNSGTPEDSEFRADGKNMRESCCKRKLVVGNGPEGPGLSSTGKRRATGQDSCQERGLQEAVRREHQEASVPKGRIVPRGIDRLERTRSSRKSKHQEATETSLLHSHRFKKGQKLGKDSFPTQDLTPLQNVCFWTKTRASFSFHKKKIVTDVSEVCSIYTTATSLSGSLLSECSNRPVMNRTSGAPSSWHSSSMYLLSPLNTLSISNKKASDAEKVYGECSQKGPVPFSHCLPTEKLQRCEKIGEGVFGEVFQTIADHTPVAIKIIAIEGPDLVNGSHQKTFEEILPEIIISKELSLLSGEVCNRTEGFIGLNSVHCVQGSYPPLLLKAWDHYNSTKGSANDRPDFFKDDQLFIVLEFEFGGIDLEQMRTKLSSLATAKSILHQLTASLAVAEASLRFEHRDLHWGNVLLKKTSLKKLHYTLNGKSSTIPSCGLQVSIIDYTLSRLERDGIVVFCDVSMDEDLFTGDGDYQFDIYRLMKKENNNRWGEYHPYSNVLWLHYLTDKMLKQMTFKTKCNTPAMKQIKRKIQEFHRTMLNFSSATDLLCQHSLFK
- Experimental Details: HASPIN ADP GLO kinase assay
- Type: biochemical
- Set-up: purchased ProQinase, Freiburg, Germany
- Condition Context: 150 μM ATP

[
  {
    "Molecule": "COc1nc2ccc(NCC3CCN(C)CC3)nn2c1C(=O)Nc1cccc(OC(F)(F)F)c1 [Cpd 1]",
    "IC50": "> 10 µM"
  }
]

---

- System: PDAC2 3D spheres
- Experimental Details: Viability curves on PDAC2 3D spheres
- Format: cell-based, human
- Condition Context: Homo sapiens, PDAC-2; 72 h, no Bafilomycin; read-out: EC50 (viability), PDAC2 spheres
pEC50: −log10 of the molar value.

[
  {
    "Compound": "CN1CCC(CNc2ccc3ncc(C(=O)Nc4cccc(OC(F)(F)F)c4)n3n2)CC1 [Cpd 2]",
    "pEC50": 5.42
  }
]
